# studyTarget: recombinant human Flag-tagged PARP7 (amino acids 456-657) (Homo sapiens)
# Construct: recombinant human Flag-tagged PARP7 (amino acids 456-657)
# Sequence (Q7Z3E1 456-657): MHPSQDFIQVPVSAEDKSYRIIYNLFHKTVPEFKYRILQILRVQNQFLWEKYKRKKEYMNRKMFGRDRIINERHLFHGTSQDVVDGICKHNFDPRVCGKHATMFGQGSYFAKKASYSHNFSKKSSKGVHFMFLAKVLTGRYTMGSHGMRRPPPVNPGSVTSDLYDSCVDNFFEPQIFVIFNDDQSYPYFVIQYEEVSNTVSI
# testName: PARP7 biochemical DELFIA assay (auto-MARylation)
# condition: DELFIA readout, IC50 class
pIC50: −log10 of the molar value.
measuredParameter: pIC50

[[record]]
compound = "O=C(CCOCCn1cc(C(F)(F)F)c2c(=O)[nH]ncc21)N1CCN(c2nc3ccccc3o2)CC1 [Compound 379]"
studytarget = "recombinant human Flag-tagged PARP7 (amino acids 456-657) (Homo sapiens)"
measuredparameter = "pIC50"
assayresult = "≥ 7.00"

[[record]]
compound = "Cc1c(C)n(CCOCCC(=O)N2CCN(c3ncc(C(F)(F)F)cn3)CC2)c2cn[nH]c(=O)c12 [Compound 230]"
studytarget = "recombinant human Flag-tagged PARP7 (amino acids 456-657) (Homo sapiens)"
measuredparameter = "pIC50"
assayresult = "≥ 7.00"

[[record]]
compound = "O=C(CCOCCn1nc(C(F)(F)F)c2c(=O)[nH]ncc21)N1CCN(c2ncc(C(F)(F)F)[nH]2)CC1 [Compound 488]"
studytarget = "recombinant human Flag-tagged PARP7 (amino acids 456-657) (Homo sapiens)"
measuredparameter = "pIC50"
assayresult = "≥ 7.00"

[[record]]
compound = "N#Cc1ccc(N2CCN(C(=O)CCOCC(F)(F)c3cccc4c(=O)[nH]ncc34)CC2)nc1 [Compound 446]"
studytarget = "recombinant human Flag-tagged PARP7 (amino acids 456-657) (Homo sapiens)"
measuredparameter = "pIC50"
assayresult = "≥ 7.00"

[[record]]
compound = "[2H]C([2H])(OCCC(=O)N1CCN(c2ncc(C(F)(F)F)cn2)CC1)C(C)n1nc(C(F)(F)F)c2c(=O)[nH]ncc21 (stereo not shown) [Compound 422]"
studytarget = "recombinant human Flag-tagged PARP7 (amino acids 456-657) (Homo sapiens)"
measuredparameter = "pIC50"
assayresult = "≥ 7.00"

[[record]]
compound = "O=C(CCOCCn1cc(C(F)(F)F)c2c(=O)[nH]ncc21)N1CCN(c2nc3ccc(Cl)cc3o2)CC1 [Compound 382]"
studytarget = "recombinant human Flag-tagged PARP7 (amino acids 456-657) (Homo sapiens)"
measuredparameter = "pIC50"
assayresult = "≥ 7.00"

[[record]]
compound = "O=C(CCOCCN1C(=O)CCc2c1cn[nH]c2=O)N1CCN(c2ccc(C(F)(F)F)cn2)CC1 [Compound 240]"
studytarget = "recombinant human Flag-tagged PARP7 (amino acids 456-657) (Homo sapiens)"
measuredparameter = "pIC50"
assayresult = "≥ 7.00"

[[record]]
compound = "CC(COCCn1ncc2c(=O)[nH]ncc21)C(=O)N1CCN(c2ncc(C(F)(F)F)cn2)CC1 (stereo not shown) [Compound 156]"
studytarget = "recombinant human Flag-tagged PARP7 (amino acids 456-657) (Homo sapiens)"
measuredparameter = "pIC50"
assayresult = "6.00 to 7.00"

[[record]]
compound = "CC(CCOCC(=O)N1CCN(c2ncc(C(F)(F)F)cn2)CC1)n1nc(C(F)(F)F)c2c(=O)[nH]ncc21 (single isomer, unassigned) [Compound 328]"
studytarget = "recombinant human Flag-tagged PARP7 (amino acids 456-657) (Homo sapiens)"
measuredparameter = "pIC50"
assayresult = "≥ 7.00"

[[record]]
compound = "O=C(CCOCCn1nc(C(F)(F)F)c2c(=O)[nH]ncc21)N1CCN(c2nc3cc(F)ccc3o2)CC1 [Compound 215]"
studytarget = "recombinant human Flag-tagged PARP7 (amino acids 456-657) (Homo sapiens)"
measuredparameter = "pIC50"
assayresult = "≥ 7.00"

[[record]]
compound = "CC(COCCC(=O)N1CCN(c2ccc(OC(F)(F)F)cn2)CC1)n1nc(C(F)(F)F)c2c(=O)[nH]ncc21 (single isomer, unassigned) [Compound 254]"
studytarget = "recombinant human Flag-tagged PARP7 (amino acids 456-657) (Homo sapiens)"
measuredparameter = "pIC50"
assayresult = "≥ 7.00"

[[record]]
compound = "O=C(CCOCCN1C(=O)CCc2c1cn[nH]c2=O)N1CCN(c2ncc(Cl)cn2)CC1 [Compound 242]"
studytarget = "recombinant human Flag-tagged PARP7 (amino acids 456-657) (Homo sapiens)"
measuredparameter = "pIC50"
assayresult = "≥ 7.00"

[[record]]
compound = "CC(COCC(=O)NC1CCN(c2ncc(C(F)(F)F)cn2)CC1)n1nc(C(F)(F)F)c2c(=O)[nH]ncc21 (single isomer, unassigned) [Compound 480]"
studytarget = "recombinant human Flag-tagged PARP7 (amino acids 456-657) (Homo sapiens)"
measuredparameter = "pIC50"
assayresult = "≥ 7.00"

[[record]]
compound = "O=C(CCOCCc1cccc2c(=O)[nH]ncc12)N1CCN(c2cnc(C(F)(F)F)cn2)CC1 [Compound 105]"
studytarget = "recombinant human Flag-tagged PARP7 (amino acids 456-657) (Homo sapiens)"
measuredparameter = "pIC50"
assayresult = "≥ 7.00"

[[record]]
compound = "CC(CCOCC(=O)N1CCN(c2ncc(C#N)cn2)CC1)n1nc(C(F)(F)F)c2c(=O)[nH]ncc21 (single isomer, unassigned) [Compound 496]"
studytarget = "recombinant human Flag-tagged PARP7 (amino acids 456-657) (Homo sapiens)"
measuredparameter = "pIC50"
assayresult = "≥ 7.00"

[[record]]
compound = "O=C(c1cccc(OCc2cccc3c(=O)[nH]ncc23)c1)N1CCN(c2ncc(C(F)(F)F)cn2)CC1 [Compound 94]"
studytarget = "recombinant human Flag-tagged PARP7 (amino acids 456-657) (Homo sapiens)"
measuredparameter = "pIC50"
assayresult = "5.00 to 6.00"

[[record]]
compound = "NCc1cc2c(=O)[nH]ncc2n1CCOCCC(=O)N1CCN(c2ncc(C(F)(F)F)cn2)CC1 [Compound 136]"
studytarget = "recombinant human Flag-tagged PARP7 (amino acids 456-657) (Homo sapiens)"
measuredparameter = "pIC50"
assayresult = "6.00 to 7.00"

[[record]]
compound = "CCC(COCCC(=O)N1CCN(c2ncc(C(F)(F)F)cn2)CC1)n1cc(C(F)(F)F)c2c(=O)[nH]ncc21 (single isomer, unassigned) [Compound 339]"
studytarget = "recombinant human Flag-tagged PARP7 (amino acids 456-657) (Homo sapiens)"
measuredparameter = "pIC50"
assayresult = "≥ 7.00"

[[record]]
compound = "CC(COCCC(=O)N1CCN(c2ccc(C(F)(F)F)cn2)CC1)n1nc(C(F)(F)F)c2c(=O)[nH]ncc21 (stereo not shown) [Compound 178]"
studytarget = "recombinant human Flag-tagged PARP7 (amino acids 456-657) (Homo sapiens)"
measuredparameter = "pIC50"
assayresult = "≥ 7.00"

[[record]]
compound = "O=C(CCOCCn1c(C(F)(F)F)nc2c(=O)[nH]ncc21)N1CCN(c2ncc(C(F)(F)F)cn2)CC1 [Compound 184]"
studytarget = "recombinant human Flag-tagged PARP7 (amino acids 456-657) (Homo sapiens)"
measuredparameter = "pIC50"
assayresult = "6.00 to 7.00"

[[record]]
compound = "N#Cc1ccc(N2CCN(C(=O)CCOCCc3cc(C(F)(F)F)cc4c(=O)[nH]ncc34)CC2)nc1 [Compound 68]"
studytarget = "recombinant human Flag-tagged PARP7 (amino acids 456-657) (Homo sapiens)"
measuredparameter = "pIC50"
assayresult = "6.00 to 7.00"

[[record]]
compound = "CC(COCCC(=O)N1CCN(c2ncc(C#N)cn2)CC1)c1ccc(Cl)c2c(=O)[nH]ncc12 (stereo not shown) [Compound 415]"
studytarget = "recombinant human Flag-tagged PARP7 (amino acids 456-657) (Homo sapiens)"
measuredparameter = "pIC50"
assayresult = "≥ 7.00"

[[record]]
compound = "O=C(CCOCCc1cccc2c(=O)[nH]ncc12)N1CCN(c2ccc(OC(F)(F)F)cn2)CC1 [Compound 114]"
studytarget = "recombinant human Flag-tagged PARP7 (amino acids 456-657) (Homo sapiens)"
measuredparameter = "pIC50"
assayresult = "≥ 7.00"

[[record]]
compound = "N#Cc1ccc(N2CCN(C(=O)Cc3cccc(Cc4cccc5c(=O)[nH]ncc45)c3)CC2)nc1 [Compound 38]"
studytarget = "recombinant human Flag-tagged PARP7 (amino acids 456-657) (Homo sapiens)"
measuredparameter = "pIC50"
assayresult = "5.00 to 6.00"

[[record]]
compound = "CC(COCCC(=O)N1CCN(c2ccc(C#N)cn2)CC1)n1ncc2c(=O)[nH]ncc21 (single isomer, unassigned) [Compound 189]"
studytarget = "recombinant human Flag-tagged PARP7 (amino acids 456-657) (Homo sapiens)"
measuredparameter = "pIC50"
assayresult = "≥ 7.00"

[[record]]
compound = "CC(COCCC(=O)N1CCN(c2cnc(C#N)cn2)CC1)n1nc(C(F)(F)F)c2c(=O)[nH]ncc21 (stereo not shown) [Compound 312]"
studytarget = "recombinant human Flag-tagged PARP7 (amino acids 456-657) (Homo sapiens)"
measuredparameter = "pIC50"
assayresult = "≥ 7.00"

[[record]]
compound = "O=C(c1cccc(Cc2cccc3c(=O)[nH]ncc23)c1)N1CCN(c2ccccc2)CC1 [Compound 27]"
studytarget = "recombinant human Flag-tagged PARP7 (amino acids 456-657) (Homo sapiens)"
measuredparameter = "pIC50"
assayresult = "5.00 to 6.00"

[[record]]
compound = "O=C(CCOCCN1C(=O)CCc2c1cn[nH]c2=O)N1CCN(c2ncc(C(F)(F)F)cn2)CC1 [Compound 157]"
studytarget = "recombinant human Flag-tagged PARP7 (amino acids 456-657) (Homo sapiens)"
measuredparameter = "pIC50"
assayresult = "≥ 7.00"

